The measured values listed here are drawn from PubChem BioAssay (NCI).

method.notes: NCI Yeast Anticancer Drug Screen. Data for the sgs1 mgt1 strain (AID 161);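 also: 0% = growth of cultures given vehicle only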
stated.conditions: S. cerevisiae sgs1 mgt1 strain, at 5.0 µM (retest, dose inferred, filed as 0.5)
The panel holds about 79,000 compounds, 15% with a hit somewhere; the sample as a whole holds those more often. Activity calls are given as the source filed them. Rule as the data show it: active = growth inhibition above about 70%; inactive = the rest.
Labels: T = active, F = inactive

{"columns": ["compound", "group.label"],
 "data": [
  ["O=C(Oc1ccccc1)C1CCCCC1C(=O)Oc1ccccc1 (stereo unspecified)", "F"],
  ["Clc1ccc(N2CCN(CCCN3CCN(c4ccc(Cl)cc4)CC3)CC2)cc1", "F"],
  ["COC(=O)c1nnn(-c2ccc(S(N)(=O)=O)cc2)c1C(=O)c1ccc(Cl)c(Cl)c1", "F"],
  ["CCCCN(CCCC)CN1C(=O)/C(=C/c2ccc(NC(C)=O)cc2)NC1=S", "F"],
  ["Nc1ccc2c(c1)S(=O)(=O)c1cc(N)ccc1-2", "F"],
  ["Oc1cccc(-c2nc(-c3ccccc3)c(-c3ccccc3)[nH]2)c1", "F"],
  ["CC1(C)C[C@H]2C=C(C=O)[C@]34C[C@]3(C(=O)OC4O)[C@H]2C1 (stereo partly specified)", "T"],
  ["O=C(CNc1ccc([N+](=O)[O-])cc1)Nn1c(-c2ccccc2)nc2ccccc2c1=O", "F"],
  ["C#CC(=O)OCC#CCOC(=O)C#C", "F"],
  ["O=[N+]([O-])c1ccc2c(c1)N([O-])C1(CCCCC1)[N+]2=O", "F"],
  ["O=C(O)/C=C/C(=O)Nc1cc2c(cc1Br)-c1ccccc1C2Br (stereo unspecified)", "F"]
]}

###

method.notes: NCI Yeast Anticancer Drug Screen. Data for the mec2-1 strain (AID 157)
stated.conditions: S. cerevisiae mec2-1 strain, at 50.0 µM, active compounds read high
The panel holds about 79,000 compounds, 15% with a hit somewhere; the sample as a whole holds those more often.

{"columns": ["compound", "output.unit", "growth inhibition"],
 "data": [
  ["CCC(c1ccc(O)cc1)C(CC)c1ccc(OCC(N)=O)cc1 (stereo unspecified)", "%", 80.5],
  ["C#CC(=O)OCC#CCOC(=O)C#C", "%", 98.5],
  ["CCCCCCCCC1(C(=O)OCCN(CC)CC)CCCCC1", "%", 99.8],
  ["CCCCCCCC[N+](C)(CCCCCCCC)CCCCCCCC", "%", 92.2],
  ["COc1ccc(/C=C\\Cc2cc3c(cc2OCCO)OCO3)cc1", "%", 96.7],
  ["c1ccc2c(c1)CC1c3[nH]c4ccccc4c3CCN21 (stereo unspecified)", "%", 76.9],
  ["COC(=O)C1CCN(Cc2ccccc2)CC1=O (stereo unspecified)", "%", 92.1],
  ["Oc1cc(Cl)cc2c1-c1ccc(Cl)cc1C2O (stereo unspecified)", "%", 91.2],
  ["Cc1ccc(C)c(N(c2ccccc2[N+](=O)[O-])S(C)(=O)=O)c1", "%", 99.5],
  ["CC12CCC(=O)C=C1C=CC1C2CCC2(C)C1CCC21CCC(=O)O1 (stereo unspecified)", "%", 80.2],
  ["N=c1c2ccccc2cc2c3ccccc3ccn12", "%", 98],
  ["C=CCNc1nc2c(s1)C(=O)c1ccccc1C2=O", "%", 93.3],
  ["CCOC(=O)c1c(C)n(C)c2c1nnc1ccccc12", "%", 51.1],
  ["CCC[N+]1=C(/C=C/c2ccc3cccnc3c2O)C(C)(C)c2ccccc21", "%", 99],
  ["O=c1cc(CSc2ccc(Cl)cc2)occ1O", "%", 13.4],
  ["OCC1CCCCCCCCCCC1", "%", 75.2],
  ["O=C1CCCC1CN1CCOCC1 (stereo unspecified)", "%", 75.7],
  ["CN(C)C1=NC(N(C)C)=C2C=CC=C12", "%", 43.8],
  ["CCCCCCCCCCCC(O)CN1CCOCC1 (stereo unspecified)", "%", 97.5],
  ["O=C(O)c1c2c(c(O)c3c1CN(C1CCCCC1)CO3)OCN(C1CCCCC1)C2", "%", 53.1],
  ["CC(=O)C1C(=O)C=C(C)OC1=O (stereo unspecified)", "%", 29.1],
  ["O=C(O)C(CCc1cccc2ccccc12)c1ccccc1 (stereo unspecified)", "%", 99.2],
  ["O=C(/C=C/c1ccccc1Cl)c1ccc(F)cc1", "%", 70.4],
  ["O=C1C=CC(=O)c2c(O)c(N3CCC[C@@H]3CO)c(Cl)c(O)c21", "%", 41.5],
  ["O=C(Oc1cc([N+](=O)[O-])ccc1Cl)Oc1cc([N+](=O)[O-])ccc1Cl", "%", 99.5],
  ["NCCSC1(O)C(=O)c2ccccc2C1=O", "%", 65.7]
]}

###

method.notes: NCI Yeast Anticancer Drug Screen. Data for the mlh1 rad18 strain (AID 175)
stated.conditions: S. cerevisiae mlh1 rad18 strain growth inhibition; at 5.0 µM (retest, dose inferred, filed as 0.5); active compounds read high
About 79,000 compounds went through this panel and 15% of them were active in at least one assay; those are over-represented in the sample as a whole. Where a SMILES comes first, the peptide text is derived from it. [ ]: non-standard residue; d: D form. Nva = CCC[CH](N)C(=O)O

{"columns": ["compound", "output.unit", "growth inhibition"],
 "data": [
  ["Cc1ccc2[nH]c3c(c2c1)[n+]([O-])c1ccccc1[n+]3[O-]", "%", -6],
  ["CC(C)(C)OC(=O)N(CCCCNCc1ccc2ccccc2c1)CCCNCc1ccc2ccccc2c1", "%", 26],
  ["COC(=O)C(CCC(=O)Cc1ccccc1)N1C(=O)c2ccccc2C1=O (configuration not stated)", "%", 16],
  ["COC1=CC(=O)C(C#CCOCc2ccccc2)=CC1=O", "%", 8],
  ["Cc1cc(C2c3ccccc3-c3ccccc32)cc(C)c1O", "%", 7],
  ["O=[N+]([O-])c1cc(Cl)ccc1S(=O)(=O)c1ccccc1", "%", -25],
  ["O=c1[nH]c2ccc([N+](=O)[O-])c(Cl)c2c2ccccc12", "%", 70],
  ["Cc1[nH]c(=O)[nH]c(=O)c1CN(C)Cc1cc(Cl)cc(Cl)c1O", "%", -3],
  ["O/N=C(/Cc1ccccc1)c1ccc2c(c1)OCO2", "%", -19],
  ["O=c1c2ccccc2c2ccccc2n1O", "%", 94],
  ["CCCC(N)C(=O)NC(C(=O)O)C(C)C (configuration not stated) (H-[Nva]-Val-OH; configuration not given here)", "%", -2],
  ["O=C(Oc1c(I)ccccc1=O)c1ccc([N+](=O)[O-])cc1", "%", 94],
  ["CN(C)CCOC1OCN(C)CC1(C)C (configuration not stated)", "%", 2],
  ["Cc1nc2ccc(N=Nc3c(O)ccc4ccccc34)cc2[nH]1", "%", -33],
  ["CCCn1cc2c(SC)nc(SC)nc2n1", "%", -3],
  ["O=C1C2C3C=CC(C2C(=O)N1CN1CCOCC1)C1C2C(=O)N(CN4CCOCC4)C(=O)C2C31 (configuration not stated)", "%", -31],
  ["CN1c2ccccc2Sc2c1n[nH]c2-c1ccccc1", "%", -4],
  ["CCCCCCCCCCCC[S+](C)C", "%", 30],
  ["Cc1ccc(NC(=O)CC2SC(N)=NC2=O)cc1C (configuration not stated)", "%", -1],
  ["N#Cc1c(-c2ccc([N+](=O)[O-])cc2)c(C#N)c(=O)n(NS(=O)(=O)c2ccccc2)c1S", "%", 31],
  ["CCOC(=O)c1cnc2cc3cccccc3n2c1=O", "%", -1],
  ["CCCCCCCCCCCCCCCCN", "%", 98],
  ["CC(=O)OCc1ccc([N+](=O)[O-])o1", "%", 1],
  ["CCC1=C(c2ccccc2)C(O)(c2ccccc2)C(CC)C1=O (configuration not stated)", "%", -2],
  ["N#CSC#Cc1ccc(C#CSC#N)cc1", "%", 100],
  ["COC12CC(=O)C(C(C)=O)=C(O)C1(C)c1c(OC(C)=O)c(C)c(O)c(C(C)=O)c1O2 (configuration not stated)", "%", 19],
  ["CCOc1ccc(/C=N\\NC(=O)c2ccco2)cc1OCC", "%", -2],
  ["C=CCN1/C(=C/C=C\\c2sc3ccccc3[n+]2CC=C)Sc2ccccc21", "%", 90],
  ["CCN(CC)CCOC(=O)c1ccc(N=Nc2ccc(O)c3ccccc23)cc1", "%", -7],
  ["O=NNc1ccc(-c2ccc([N+](=O)[O-])cc2)cn1", "%", 10],
  ["O=C1C(Cl)=C(N2CCN(c3ccccn3)CC2)C(=O)c2ncccc21", "%", 34],
  ["O=C1CSC(=S)N1/N=C/c1ccc(Cl)c([N+](=O)[O-])c1", "%", 2],
  ["NC(=S)C(=S)N/C=C/c1nc2ccccc2[nH]c1=O", "%", -6],
  ["NNc1ncc2c(n1)-c1ccccc1OC2", "%", 13],
  ["Cn1c(=S)c2[nH]c(SCCN3CCOCC3)nc2n(C)c1=O", "%", 15],
  ["O=C(OCc1ccccc1CN1CCOCC1)c1ccc(Br)cc1", "%", 4],
  ["CCN(CC)CCSCCCNc1cc(C)nc2c1ccc1c2ccc2c(NCCCSCCN(CC)CC)cc(C)nc21", "%", 8],
  ["C=CC1(c2ccc(-c3ccccc3)cc2)OCCO1", "%", -17],
  ["COc1ccc(C(c2c(O)c3ccccc3oc2=O)N2CCOCC2)c(OC)c1 (configuration not stated)", "%", -7],
  ["CN1N=C2c3ccccc3CC[C@H]2C1c1cccc(O)c1 (some centres not stated)", "%", -16],
  ["CC(C)(C)NCc1cc(Nc2ccnc3cc(Cl)ccc23)cc(-c2ccc(Cl)cc2)c1O", "%", -1],
  ["OC1OCC(OCc2ccccc2)C(OCc2ccccc2)C1OCc1ccccc1 (configuration not stated)", "%", 10],
  ["O=C(COc1ccc(Cl)cc1)OCCO", "%", 3],
  ["Oc1ccc(N=Nc2ccccc2)cc1", "%", 9],
  ["CCCCN(CCCC)CN1C(=O)/C(=C/c2ccc(NC(C)=O)cc2)NC1=S", "%", -3],
  ["Oc1c(Br)ccc2c(O)c(Br)ccc12", "%", 31],
  ["Cc1ccc(N=Nc2ccc(N)c3ccccc23)c(S(N)(=O)=O)c1", "%", 0]
]}
